run description: Stability of compound in pre-heated IMDM at 200 uM at 37 degC by RP-HPLC analysis
Type: physicochemical
readout label: Stability

See these solved cases before continuing.
Asked: For `COc1cccc2c1C(=O)c1c(O)c3c(c(O)c1C2=O)C[C@@](O)(C(=O)COC(=O)c1ccc(-c2ssc(=S)c2-c2ccccc2)cc1)C[C@@H]3O[C@H]1C[C@H](N)[C@H](O)[C@H](C)O1.Cl` , what is its reported Stability?
Given back: Stable

Asked: For `COc1cccc2c1C(=O)c1c(O)c3c(c(O)c1C2=O)C[C@@](O)(C(=O)COC(=O)COc1ccc(-c2cc(=S)ss2)cc1)C[C@@H]3O[C@H]1C[C@H](N)[C@H](O)[C@H](C)O1.Cl` , what is its reported Stability?
Given back: Unstable

Asked: For `C=CCSSCCC(=O)OCC(=O)[C@]1(O)Cc2c(O)c3c(c(O)c2[C@@H](O[C@H]2C[C@H](N)[C@H](O)[C@H](C)O2)C1)C(=O)c1c(OC)cccc1C3=O.Cl` , what is its reported Stability?
Given back: Stable

Asked: For `COc1cccc2c1C(=O)c1c(O)c3c(c(O)c1C2=O)C[C@@](O)(C(=O)COC(=O)c1ccc(C(N)=S)cc1)C[C@@H]3O[C@H]1C[C@H](N)[C@H](O)[C@H](C)O1.Cl` , what is its reported Stability?
Given back: Stable

Asked: For `COc1cccc2c1C(=O)c1c(O)c3c(c(O)c1C2=O)C[C@@](O)(C(=O)COC(=O)c1csc(=S)s1)C[C@@H]3O[C@H]1C[C@H](N)[C@H](O)[C@H](C)O1.Cl` , what is its reported Stability?
Given back: Unstable

Asked: For `COc1cccc2c1C(=O)c1c(O)c3c(c(O)c1C2=O)C[C@@](O)(C(=O)COC(=O)c1ccc(-c2cssc2=S)cc1)C[C@@H]3O[C@H]1C[C@H](N)[C@H](O)[C@H](C)O1.Cl` , what is its reported Stability?
Given back: Stable

Proceed to the following item.
Asked: For C=CCSCC(NC(C)=O)C(=O)OCC(=O)[C@]1(O)Cc2c(O)c3c(c(O)c2[C@@H](O[C@H]2C[C@H](N)[C@H](O)[C@H](C)O2)C1)C(=O)c1c(OC)cccc1C3=O.Cl (some centres not stated) , what is its reported Stability?
Given back: Unstable
